- Test system: V. fischeri luxRI system
- method_description: N-acylated homoserine lactone (AHL) quorum sensing assay, GFP reporter strain
- Assay type: cell-based, E. coli
- run_parameters: Table 4 comparative results; first number of the cell; lower = better
Labelling field: enter MET if recorded AIC40 is less than 5. Enter NOT MET if it equals or exceeds that cut-off.

For orientation, consider the following solved cases.
{"compound": "O=C1C=C(Br)/C(=C/Br)N1Cc1ccccc1 [reference compound]", "answer_label": "NOT MET"}
{"compound": "C=C1NC(=O)C=C1c1ccc(OC)cc1 [drawing 24]", "answer_label": "NOT MET"}
{"compound": "C=C1NC(=O)C=C1c1ccc(F)cc1 [drawing 21]", "answer_label": "MET"}
{"compound": "C=C1NC(=O)C=C1c1ccccc1 [drawing 20]", "answer_label": "MET"}

Ask | Lab note: AIC40 threshold 5. Does this compound come in strictly under it? CCCC(O)C1=C(Br)/C(=C/Br)N(c2ccccc2)C1=O (stereo not drawn) [reference compound]
Reply | NOT MET
